Please go through the items and note down their EC50.
- Tested on: pig internal anal sphincter muscle
- experiment: In vitro contraction of internal anal sphincter muscle strips in superfusion organ bath
- Type: cell-based
- condition label: Sus scrofa; pig IAS strips; Table 1; read-out: EC50 value μM (±SE)
Give bare numbers, in µM.

Please review the entries below; each comes with its answer.
In [3]: df
Out[3]:
                                   compound                         system_name  measured_endpoint  unit_descriptor  reported_result
0  COc1ccc(OC)c(C(O)C(C)N)c1 (racemic) [methoxamine racemate]  pig internal anal sphincter muscle               EC50               µM             58.3
1                    CNC[C@H](O)c1cccc(O)c1  pig internal anal sphincter muscle               EC50               µM             74.7

Query compound follows.
Field EC50 (entry COc1ccc(OC)c([C@@H](O)C(C)N)c1 (single isomer, unassigned) ) reads 17.6
